System: HepG2-CANX-COX4
run-description: phenotypically active (imaging signature differs from DMSO and reproducible) at any of 0.3-9 uM (binary (1 = active, 0 = inactive)); higher = active
condition-info: treatment time: 24 h
Outcome codes: 1.0 (active), 0.0 (inactive)

| compound | qualitative-label |
| --- | --- |
| C#C[C@]1(OC(C)=O)CC[C@H]2[C@@H]3CCC4=C[C@@H](OC(C)=O)CC[C@@H]4[C@H]3CC[C@@]21C [ethynodiol diacetate] | 0.0 |
| CCCCC(=O)O[C@H]1CC[C@H]2[C@@H]3CCc4cc(O)ccc4[C@H]3CC[C@]12C [estradiol valerate] | 0.0 |
| COc1cc(C=O)c([N+](=O)[O-])cc1OC | 0.0 |
| N#Cc1cccc(-c2c[nH]c3ncnc(N4CCOCC4)c23)c1 | 1.0 |
| O=C1NCCN1CCN1CCC(c2cn(-c3ccc(F)cc3)c3ccc(Cl)cc23)CC1 | 1.0 |

---

Test system: A549-TP53BP1-CLTA
run-description: phenotypically active (imaging signature differs from DMSO and reproducible) at any of 0.3-9 uM (binary (1 = active, 0 = inactive)); higher = active
condition-info: treatment time: 24 h
Where a name gives a salt, the structure may show the parent alone.
Outcome codes: 1 (yes) (active), 0 (no) (inactive)

| compound | qualitative-label |
| --- | --- |
| CC(C)(C)NC[C@H](O)c1ccc(O)c(CO)c1 | 0 (no) |
| Cc1ccc(Cl)c(Nc2ccccc2C(=O)O)c1Cl | 0 (no) |
| N#Cc1c(O)c2c(-c3ccc(-c4ccccc4O)cc3)csc2[nH]c1=O | 0 (no) |
| CCCCCN(C)CCC(O)(P(=O)(O)O)P(=O)(O)O [ibandronate] | 0 (no) |
| O=S(=O)(c1cccc2cnccc12)N1CCCNCC1 | 1 (yes) |
| CCN(CCO)CCCOc1ccc2c(Nc3cc(CC(=O)Nc4cccc(F)c4)n[nH]3)ncnc2c1 | 1 (yes) |
| COc1ccc([C@@H]2Sc3ccccc3N(CCN(C)C)C(=O)[C@@H]2OC(C)=O)cc1 | 0 (no) |
| O=C(O)c1c(Sc2ccccc2)c2cc(Cl)ccc2n1Cc1ccc(Cl)cc1 | 0 (no) |
| CC(C)(C)c1cc(C(=O)/C=C/c2ccc(C(=O)O)cc2)cc(C(C)(C)C)c1 | 0 (no) |
| O=C(O)[C@H](Cc1c[nH]c2ccccc12)N1C(=O)c2ccccc2C1=O | 0 (no) |
| CC(=O)c1ccc(S(=O)(=O)NC(=O)NC2CCCCC2)cc1 [acetohexamide] | 0 (no) |
| N#Cc1ccc(C(c2ccc(C#N)cc2)n2cncn2)cc1 | 0 (no) |
| CCc1cccc(CC)c1NC(=O)N1Cc2[nH]nc(NC(=O)c3ccc(N4CCN(C)CC4)cc3)c2C1 | 1 (yes) |
| NCCNS(=O)(=O)c1ccc(Cl)c2ccncc12 [CKI 7 dihydrochloride] | 0 (no) |
| CC1(C)[C@@H](O)CC[C@]2(C)[C@H]3C(=O)C=C4[C@@H]5C[C@@](C)(C(=O)O)CC[C@]5(C)CC[C@@]4(C)[C@]3(C)CC[C@@H]12 | 0 (no) |
| COc1ccc2c3c1O[C@H]1C[C@@H](O)C=C[C@@]31CCN(C)C2 | 0 (no) |
| COc1ccccc1OCCNCC(O)COc1cccc2[nH]c3ccccc3c12 (stereo not given) | 1 (yes) |
| NS(=O)(=O)c1cc(Cl)c(Cl)c(S(N)(=O)=O)c1 [diclofenamide] | 0 (no) |
| O=C(O)CCCC[C@@H]1SC[C@@H]2NC(=O)N[C@@H]21 | 0 (no) |
| CCc1cccc2c3c([nH]c12)C(CC)(CC(=O)O)OCC3 (stereo not given) | 0 (no) |
| COc1cc(C(C)=O)ccc1OCCCN1CCC(c2noc3cc(F)ccc23)CC1 | 0 (no) |
| O=C(NC(CO)C(O)c1ccc([N+](=O)[O-])cc1)C(Cl)Cl (stereo not given) | 0 (no) |
| OC(CCN1CCCCC1)(c1ccccc1)C1CC2C=CC1C2 (stereo not given) | 0 (no) |
| CNC(=O)c1ccccc1Sc1ccc2c(/C=C/c3ccccn3)n[nH]c2c1 | 1 (yes) |
| C[C@H](CCC(=O)NCC(=O)O)[C@H]1CC[C@H]2[C@@H]3[C@H](O)C[C@@H]4C[C@H](O)CC[C@]4(C)[C@H]3C[C@H](O)[C@]12C | 0 (no) |
